These measurements were taken from ChEMBL document CHEMBL4396867.

Assay: Aqueous solubility of the compound in phosphate buffer at pH 6.5 by nephelometry
Assay type: physicochemical

MOL SMILES	solubility kinetic
O=C(CCCOc1cccc(C(F)(F)F)c1)Nc1ncc(C(F)(F)F)s1	< 1.6 µM
Cc1cnc(NC(=O)CCCOc2cccc(C#N)c2)s1	< 1.1 µM
Cc1cnc(NC(=O)CCCOc2cccc(Cl)c2)s1	< 1.1 µM
N#Cc1cnc(NC(=O)CCCOc2cccc(Cl)c2)s1	< 1.6 µM
Cc1cnc(NC(=O)CCCOc2cccc(C(F)(F)F)c2)s1	< 1.1 µM
N#Cc1cnc(NC(=O)CCCOc2cccc(C(F)(F)F)c2)s1	< 1.6 µM
Cc1cnc(NC(=O)CCCOc2cccc(Cl)n2)s1	< 1.2 µM
Cc1cnc(NC(=O)CCCOc2cncc(Cl)c2)s1	3.1 to 6.3 µM
Cc1cnc(NC(=O)NCCOc2ccc(Cl)c(C)c2)s1	< 1.6 µM
CC(C)c1cnc(NC(=O)CCCOc2ccccc2)s1	< 1.2 µM
N#Cc1cnc(NC(=O)CCCOc2ccccc2)s1	1.1 to 2.2 µM
Cc1cnc(NC(=O)CCCOc2ccccc2)s1	< 1.1 µM
O=C(CCCOc1ccccc1)Nc1ncc(Cl)s1	< 1.2 µM
